assayed.system: IDH1/R132H (Homo sapiens, UniProt O75874, R132H)
Construct: FLAG (C); purchased BPS Bioscience
Sequence (O75874 whole entry R132H): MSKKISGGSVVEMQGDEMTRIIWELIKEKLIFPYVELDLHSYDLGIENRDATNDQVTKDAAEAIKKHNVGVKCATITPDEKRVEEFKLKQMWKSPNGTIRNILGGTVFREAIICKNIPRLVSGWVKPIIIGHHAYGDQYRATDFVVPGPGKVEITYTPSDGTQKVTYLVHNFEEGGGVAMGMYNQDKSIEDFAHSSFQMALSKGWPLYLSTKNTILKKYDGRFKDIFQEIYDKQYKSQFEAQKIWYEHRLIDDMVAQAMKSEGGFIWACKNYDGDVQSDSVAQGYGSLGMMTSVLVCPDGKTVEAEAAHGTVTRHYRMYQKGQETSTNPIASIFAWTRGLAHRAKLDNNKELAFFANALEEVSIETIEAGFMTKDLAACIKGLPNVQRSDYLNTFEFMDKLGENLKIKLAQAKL
protocol.details: Enzymatic assay, IDH1/R132H
Type: biochemical
condition.parameters: incubation time 16 h, read-out: IC50 for α-KG reduction
pIC50: −log10 of the molar value.
observation.type: pIC50

Given item Cc1ccc(Cl)cc1NC(=O)Nc1cc(NC(=O)c2ccccc2)ccc1N1CCCC1 [CP-17] , the value recorded as its pIC50 is < 5.30

----------
assayed.system: IDH2/WT (Homo sapiens, UniProt P48735)
Construct: FLAG (C); purchased BPS Bioscience
Sequence (P48735 40-452): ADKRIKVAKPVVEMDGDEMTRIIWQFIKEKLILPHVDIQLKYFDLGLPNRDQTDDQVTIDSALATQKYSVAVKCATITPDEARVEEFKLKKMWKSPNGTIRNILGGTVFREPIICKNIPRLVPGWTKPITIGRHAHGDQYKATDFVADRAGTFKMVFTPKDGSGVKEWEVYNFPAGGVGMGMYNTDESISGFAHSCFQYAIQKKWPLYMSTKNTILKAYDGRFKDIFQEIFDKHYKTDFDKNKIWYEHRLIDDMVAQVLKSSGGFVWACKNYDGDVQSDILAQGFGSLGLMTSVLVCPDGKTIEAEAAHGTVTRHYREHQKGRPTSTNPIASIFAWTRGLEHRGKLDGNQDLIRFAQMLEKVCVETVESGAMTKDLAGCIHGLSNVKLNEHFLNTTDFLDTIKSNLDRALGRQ
protocol.details: Diaphorase/resazurin coupled NADPH production enzymatic assay, IDH2/WT
Format: biochemical
condition.parameters: incubation time 16 h, read-out: IC50 for isocitrate to α-KG
observation.type: pIC50
Lab note: report pIC50 as minus log10 of the concentration in molar units, number only.

Given item Cc1ccc(Cl)cc1NC(=O)Nc1cc(NC(=O)c2ccccc2)ccc1N1CCCC1 , the value recorded as its pIC50 is 5.64
